Biological target: SMARCA2 (Homo sapiens, UniProt P51531)
Sequence (P51531 whole entry): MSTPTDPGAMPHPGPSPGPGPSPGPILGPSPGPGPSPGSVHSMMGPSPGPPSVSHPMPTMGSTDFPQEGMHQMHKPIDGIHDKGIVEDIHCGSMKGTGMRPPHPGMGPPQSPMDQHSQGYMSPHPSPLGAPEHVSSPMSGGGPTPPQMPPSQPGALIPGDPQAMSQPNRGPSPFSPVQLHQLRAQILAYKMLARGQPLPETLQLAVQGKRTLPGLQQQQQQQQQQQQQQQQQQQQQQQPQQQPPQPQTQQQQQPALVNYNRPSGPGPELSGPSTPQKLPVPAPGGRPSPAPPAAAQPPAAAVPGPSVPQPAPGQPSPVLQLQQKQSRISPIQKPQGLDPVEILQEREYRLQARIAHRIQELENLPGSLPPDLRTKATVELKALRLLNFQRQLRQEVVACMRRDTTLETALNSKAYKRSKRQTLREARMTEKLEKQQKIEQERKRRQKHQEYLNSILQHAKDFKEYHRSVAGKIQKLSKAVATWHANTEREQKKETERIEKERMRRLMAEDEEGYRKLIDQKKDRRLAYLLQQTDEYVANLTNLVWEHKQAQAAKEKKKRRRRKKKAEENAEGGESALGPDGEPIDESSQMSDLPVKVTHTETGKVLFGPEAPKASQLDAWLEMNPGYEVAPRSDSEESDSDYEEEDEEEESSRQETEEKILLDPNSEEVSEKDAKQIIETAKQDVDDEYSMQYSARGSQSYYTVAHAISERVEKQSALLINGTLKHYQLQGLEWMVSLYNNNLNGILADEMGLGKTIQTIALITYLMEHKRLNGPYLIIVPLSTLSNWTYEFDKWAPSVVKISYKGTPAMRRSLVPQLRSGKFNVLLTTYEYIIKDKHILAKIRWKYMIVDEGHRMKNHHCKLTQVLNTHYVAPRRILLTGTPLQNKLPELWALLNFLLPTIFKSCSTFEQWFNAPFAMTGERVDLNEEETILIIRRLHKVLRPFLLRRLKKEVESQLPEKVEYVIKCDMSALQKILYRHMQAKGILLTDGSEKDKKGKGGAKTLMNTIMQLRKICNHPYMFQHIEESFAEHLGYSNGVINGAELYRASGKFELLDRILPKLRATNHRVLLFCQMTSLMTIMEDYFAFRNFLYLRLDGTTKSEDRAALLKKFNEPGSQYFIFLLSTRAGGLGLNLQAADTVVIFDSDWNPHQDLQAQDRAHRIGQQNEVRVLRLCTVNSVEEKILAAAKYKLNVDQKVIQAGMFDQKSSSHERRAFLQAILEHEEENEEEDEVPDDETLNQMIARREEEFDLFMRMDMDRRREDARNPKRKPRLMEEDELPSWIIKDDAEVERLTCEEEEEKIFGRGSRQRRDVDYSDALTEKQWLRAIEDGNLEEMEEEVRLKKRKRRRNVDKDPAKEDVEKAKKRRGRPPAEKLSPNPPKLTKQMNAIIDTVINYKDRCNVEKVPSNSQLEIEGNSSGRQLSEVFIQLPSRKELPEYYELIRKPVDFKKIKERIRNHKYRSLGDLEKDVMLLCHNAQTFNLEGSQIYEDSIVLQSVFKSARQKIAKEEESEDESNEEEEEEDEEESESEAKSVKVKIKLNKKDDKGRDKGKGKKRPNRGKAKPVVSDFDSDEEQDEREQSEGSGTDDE
Assay: SMARCA2 Western blot degradation in MV4-11 cells
Format: cell-based
Set-up: SMARCA2/SMARCA4 protein degradation selectivity in MV4-11 cells; endogenous in cells; host or cells: MV4-11
Conditions: SMARCA2/4 selectivity, MV4-11 cells
measurement kind: Selectivity in MV411

• C[C@H](NC(=O)[C@@H]1C[C@@H](O)CN1C(=O)[C@@H](NC(=O)[C@H]1CCC2(CC1)C[C@H](N1CCC(c3cnc(N4CCN5c6cc(-c7ccccc7O)nnc6NC[C@H]5C4)nc3)CC1)C2)C(C)(C)C)c1ccc(-c2ccnn2C)cc1 (single isomer, unassigned) [I-22] = C (C (10-100 fold))
• Cc1ncsc1-c1ccc(CNC(=O)[C@@H]2C[C@@H](O)CN2C(=O)[C@@H](NC(=O)N2CCC3(CC2)CC(N2CCC(c4cnc(N5CCN6c7cc(-c8ccccc8O)nnc7NC[C@H]6C5)nc4)CC2)C3)C(C)(C)C)cc1 [I-67] = C (C (10-100 fold))
• C#Cc1ccc(CNC(=O)[C@@H]2C[C@@H](O)CN2C(=O)[C@@H](NC(=O)C2CCN(CC3CCC(N4CCC(N5CCc6[nH]c7nnc(-c8ccccc8O)cc7c6[C@H]5C)CC4)CC3)CC2)C(C)(C)C)cc1 (some centres unmarked) [I-197] = C (C (10-100 fold))
• C#Cc1ccc(CNC(=O)[C@@H]2C[C@@H](O)CN2C(=O)[C@@H](NC(=O)N2CC3(CC(N4CCC(c5cnc(N6CCc7[nH]c8nnc(-c9ccccc9O)cc8c7[C@H]6C)nc5)CC4)C3)C2)C(C)(C)C)c(OCCCN(C)C)c1 [I-127] = D (D (<10 fold))
• Cc1ncsc1-c1ccc(CNC(=O)[C@@H]2C[C@@H](O)CN2C(=O)[C@@H](NC(=O)N2CC3(CCC(N4CCC(c5cnc(N6CCc7[nH]c8nnc(-c9ccccc9O)cc8c7C6C)nc5)CC4)CC3)C2)C(C)(C)C)cc1 (some centres unmarked) [I-62] = C (C (10-100 fold))
• Cc1ncsc1-c1ccc(CNC(=O)[C@@H]2C[C@@H](O)CN2C(=O)[C@@H](NC(=O)N2CC3(CC(N4CCN(c5cnc(N6CCc7[nH]c8nnc(-c9ccccc9O)cc8c7[C@H]6C)nc5)CC4)C3)C2)C(C)(C)C)cc1 [I-82] = C (C (10-100 fold))
• C#Cc1ccc(CNC(=O)[C@@H]2C[C@@H](O)CN2C(=O)[C@@H](NC(=O)[C@H]2CCC3(CC2)C[C@H](N2CCC(c4cnc(N5CCN6c7cc(-c8ccccc8O)nnc7NC[C@H]6C5)nc4)CC2)C3)C(C)(C)C)c(OCCCOC)c1 (single isomer, unassigned) [I-149] = D (D (<10 fold))
